Molecular target: Oxysterols receptor LXR-beta (Homo sapiens)
Sequence (P55055 whole entry): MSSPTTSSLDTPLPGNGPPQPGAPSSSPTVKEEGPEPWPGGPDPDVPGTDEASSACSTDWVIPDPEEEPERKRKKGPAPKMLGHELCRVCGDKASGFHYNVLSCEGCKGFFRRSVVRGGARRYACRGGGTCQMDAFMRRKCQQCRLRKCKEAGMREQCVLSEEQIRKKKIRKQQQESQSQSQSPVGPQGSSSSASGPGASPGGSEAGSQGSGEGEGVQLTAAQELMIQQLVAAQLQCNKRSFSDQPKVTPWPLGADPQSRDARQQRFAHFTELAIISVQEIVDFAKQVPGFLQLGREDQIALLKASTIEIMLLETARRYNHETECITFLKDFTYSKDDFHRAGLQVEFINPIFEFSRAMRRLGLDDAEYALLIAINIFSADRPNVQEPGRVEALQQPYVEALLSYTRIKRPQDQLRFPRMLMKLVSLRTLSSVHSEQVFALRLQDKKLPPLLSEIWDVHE
Test: Agonist activity at GAL-linked human LXRbeta expressed in THP1 cells assessed as stimulation of co-activator recruitment by FRET assay
Assay type: functional
pEC50: −log10 of the molar value.
MEASURED_QUANTITY: pEC50

1 = COc1cccc(C2SC(c3ccc(F)cc3)=NN2C(=O)c2c(F)cc(F)cc2F)c1OC (stereo unspecified)
2 = COc1cccc(C2SC(c3ccc(Cl)cc3)=NN2C(=O)c2c(F)cc(F)cc2F)c1OC (racemic)
3 = COc1cccc(C2SC(c3ccc(Cl)cc3)=NN2C(=O)c2ccccc2F)c1OC (stereo unspecified)
Endpoint returns the given compounds ordered by ascending pEC50. Labels, requested order.
3, 2, 1

P = COc1ccccc1C1SC(c2ccc(Cl)cc2)=NN1C(=O)c1c(F)cc(F)cc1F (stereo unspecified)
Q = O=C(c1c(F)cc(F)cc1F)N1N=C(c2ccc(Cl)cc2)SC1c1cccc2c1OC(F)(F)O2 (stereo unspecified)
For the pair P and Q , which entry has the numerically smaller recorded pEC50? Mark your answer with the label of the selected entry.
Q

---

Assay: Cmax in C57BL/6 mouse at 5 mg/kg, iv
Assay type: ADME, organism-based
Parameters: dose 5 mg/kg, route intravenous
Conditions: in vivo
MEASURED_QUANTITY: Cmax (µM)

I = COc1cccc(C2SC(c3ccc(Cl)cc3)=NN2C(=O)c2c(F)cc(F)cc2F)c1OC (racemic)
II = COc1cccc(C2SC(c3ccc(F)cc3)=NN2C(=O)c2c(F)cc(F)cc2F)c1OC (configuration not stated)
Just tell me: smaller Cmax value, I or II ? Record your answer as the label of the chosen record.
I
(I: 20.4 µM, II: 70.9 µM)

---

Molecular target: Oxysterols receptor LXR-alpha (Homo sapiens) (UniProt Q13133)
Sequence (whole entry): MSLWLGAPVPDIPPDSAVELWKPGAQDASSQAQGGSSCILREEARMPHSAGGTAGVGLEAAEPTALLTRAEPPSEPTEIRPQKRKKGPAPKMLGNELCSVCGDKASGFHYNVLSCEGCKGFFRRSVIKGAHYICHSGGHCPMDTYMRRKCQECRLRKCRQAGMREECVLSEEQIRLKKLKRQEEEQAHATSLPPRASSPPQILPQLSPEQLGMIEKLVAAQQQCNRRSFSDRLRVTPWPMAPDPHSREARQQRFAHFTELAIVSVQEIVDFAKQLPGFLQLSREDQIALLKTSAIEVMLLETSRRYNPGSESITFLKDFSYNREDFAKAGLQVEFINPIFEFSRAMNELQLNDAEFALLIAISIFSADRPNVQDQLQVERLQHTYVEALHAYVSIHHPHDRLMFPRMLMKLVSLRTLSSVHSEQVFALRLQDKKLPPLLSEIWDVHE
Assay: Agonist activity at GAL-linked human LXRalpha expressed in THP1 cells assessed as stimulation of co-activator recruitment by FRET assay relative to GW-3965
Assay type: functional
MEASURED_QUANTITY: Efficacy (%)

Please review the entries below; each comes with its answer.
* COc1cccc(C2SC(c3ccc(F)cc3)=NN2C(=O)c2cc(F)c(F)c(OC)c2F)c1OC (centres undefined) | 64
* O=C(c1c(F)cc(F)cc1F)N1N=C(c2ccc(Cl)cc2)SC1c1cccc2c1OC(F)(F)O2 (centres undefined) | 71
* COc1cccc([C@H]2SC(c3ccc(Cl)cc3)=NN2C(=O)c2c(F)cc(F)cc2F)c1OC | 64
* COc1cc(F)c(C(=O)N2N=C(c3ccc(F)cc3)SC2c2cccc(OC)c2OC)c(F)c1 (centres undefined) | 47

a = COc1cccc(C2SC(c3ccc(Cl)cc3)=NN2C(=O)c2ccc(F)cc2F)c1OC (centres undefined)
b = COc1cccc(C2SC(c3ccc(F)c(F)c3)=NN2C(=O)c2cccc(F)c2)c1OC (centres undefined)
c = COc1ccccc1C1SC(c2ccc(Cl)cc2)=NN1C(=O)c1c(F)cc(F)cc1F (centres undefined)
List these items ordered by Efficacy, big to small. Answer by listing the labels in the order asked for.
c, a, b
